Molecular target: T1, hIL-18BP-hFc (human, UniProt O95998 31-194, limits assumed)
T1 sequence (looked up): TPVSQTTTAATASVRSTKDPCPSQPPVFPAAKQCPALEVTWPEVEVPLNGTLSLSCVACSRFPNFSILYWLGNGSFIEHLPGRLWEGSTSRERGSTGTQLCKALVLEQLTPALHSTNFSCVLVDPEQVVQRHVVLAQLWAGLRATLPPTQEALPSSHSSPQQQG
Experiment: cell-based or functional assay
assayEndpoint: EC50 Fold Change (+BP/-BP), hIL-18 reporter assay (fold)
Response body: numeric value in fold, unit text excluded.

Past entries and their recorded results:
binder | assayValue
IL-18 variant polypeptide M14 (ligand) YFNKLKSKLSVIRNLNDQVLFIDQGNRPLFEDMTDSDCRDNAPRTIFIISMYKPSSSRGMAVTISVKCEKISTLSCENKIISFKEMNPPDRIKDTKSDIIFFQASVPGHDNKMQFESSSYEGYFLACEKERDLFKLILKKEDELGDRSIMFTVQNED | 0.75
IL-18 variant polypeptide MM1 (ligand) YFPKLKSKLSVIRNLNDQVLFIDQGNRPLFEDMTDSDCRDNAPRTIFIISMYKLSTQRGMAVTISVKCEKISTLSCENKIISFKEMNPPDVIKDTKSDIIFFQRSVPGHDNKMQFESSSYEGYFLACEKERDLFKLILKKEDELGDRSIMFTVQNED | 0.84

Consider the record given below.
Give the measured EC50 Fold Change (+BP/-BP), hIL-18 reporter assay of IL-18 variant polypeptide M2 (ligand) YFSKLKSKLSVIRNLNDQVLFIDQGNRPLFEDMTDSDCRDNAPRTIFIISMYKWSPDRGMAVTISVKCEKISTLSCENKIISFKEMNPPDGIKDTKSDIIFFQTSVPGHDNKMQFESSSYEGYFLACEKERDLFKLILKKEDELGDRSIMFTVQNED .
0.7

From: patent US20260092093A1
